FYI, the data here is from PubChem BioAssay (NCI).

- Test system: SF-268 CNS
- assay-details: NCI tumour cell line growth inhibition, 48 h

- smiles-notation: "COc1cc([N+](=O)[O-])c(OC)cc1-c1nc2sc(C)cn2c1/C(N)=N/C(=N)N"
  study-target: "SF-268 CNS"
  GI50: "22 µM"
- smiles-notation: "COc1cc(/C=C/c2cc(/C=C/c3ccc(O)c(OC)c3)n(C(=O)Nc3ccccc3Cl)n2)ccc1O"
  study-target: "SF-268 CNS"
  GI50: "0.529 µM"
- smiles-notation: "COC(=O)[C@]12CC[C@@H](C)[C@H](C)[C@@H]1C1=CC[C@@H]3[C@@]4(C)C[C@@H](OC(=O)/C=C/c5ccccc5)[C@H](O)[C@@](C)(CO)[C@@H]4[C@H](O)C[C@@]3(C)[C@]1(C)CC2"
  study-target: "SF-268 CNS"
  GI50: "2.62 µM"
- smiles-notation: "CC(C)(C)c1cc(/C=N/NC(=O)c2ccccc2NC(=O)c2cccs2)c(O)c(C(C)(C)C)c1"
  study-target: "SF-268 CNS"
  GI50: "0.668 µM"

====

- System: DU-145 prostate
- assay-details: NCI tumour cell line growth inhibition, 48 h

- compound: "C/C=C(/C)C(=O)O[C@H]1[C@H]2[C@@H]([C@@H](OC(C)=O)[C@H](C)C(=O)[C@@]34C[C@@H](C)C(=O)[C@]3(/C=C(\\C)[C@H]1OC(C)=O)O4)C2(C)C"
  study-target: "DU-145 prostate"
  TGI: "> 20 µM"
- compound: "COc1cc(/C=C2\\N=C(c3ccccc3)N(c3ccc(C(=O)c4ccccc4)cc3N3C(=O)/C(=C/c4ccc(O)c(OC)c4)N=C3c3ccccc3)C2=O)ccc1O"
  study-target: "DU-145 prostate"
  TGI: "48.6 µM"
- compound: "Oc1ccc2c3c1OC1c4[nH]ncc4C[C@H]4[C@@H](C2)N(CC2CC2)CC[C@]314 (stereo partly drawn)"
  study-target: "DU-145 prostate"
  TGI: "> 100 µM"

====

- Test system: SK-MEL-5 melanoma
- assay-details: NCI tumour cell line growth inhibition, 48 h

- compound: "CC(C)[C@@](O)(c1ccc2cc(OC(F)F)c(OC(F)F)cc2c1)c1cn[nH]n1"
  inequality-operator: "="
  TGI / µM: 27.5
- compound: "COc1ccc2nc3c([N+](=O)[O-])ccc4c3c(c2c1)NCCN4CCN(C)C"
  inequality-operator: "="
  TGI / µM: 2.08
- compound: "CC(C)(C)C1CCC2c3c([nH]c4ccccc34)C3C(=O)N(c4ccccc4Cl)C(=O)C3C2C1 (stereo not given)"
  inequality-operator: "="
  TGI / µM: 28.7
- compound: "CCCCNS(=O)(=O)c1n[nH]c(=O)[nH]c1=O"
  inequality-operator: ">"
  TGI / µM: 100
- compound: "CCN1c2cc(Br)cc3[nH]c(=O)n(c23)CCC1C (stereo not given)"
  inequality-operator: "="
  TGI / µM: 30

====

The entries below come with measured TGI values attached.
- Tested on: M19-MEL melanoma
- assay-details: NCI tumour cell line growth inhibition, 48 h
endpoint-name: TGI

- compound: "CSc1nc(CO)c(CO)n1C"
  endpoint-name: "TGI"
  result: "> 100 µM"
- compound: "CC(=O)Nc1ccc(-c2nnc(SCC(=O)Nc3cccc(Cl)c3)o2)cc1"
  endpoint-name: "TGI"
  result: "> 100 µM"
- compound: "Cn1c2c(c3ccccc31)CCN(CCCCN1CCN(c3ccccc3)CC1)C2=O"
  endpoint-name: "TGI"
  result: "> 86.7 µM"
- compound: "COc1cc(/C=C2\\CCC/C(=C\\c3ccc(O)c(OC)c3)C2=O)ccc1O"
  endpoint-name: "TGI"
  result: "3.9 µM"
- compound: "CC(=O)O[C@H]1CCN2C(=O)C=CC(OCc3ccccc3)C12 (stereo partly specified)"
  endpoint-name: "TGI"
  result: "> 100 µM"
- compound: "O=c1[nH]c(=O)n(C2CC(O)C(CO)O2)cc1C(F)(C(F)(F)F)C(F)(F)F (stereo unspecified)"
  endpoint-name: "TGI"
  result: "> 100 µM"
- compound: "CC(C)(C)c1cc(CCCCCCCC2(CCCCCCCc3cc(C(C)(C)C)cc(C(C)(C)C)c3)OC(COCCOCCCCCC#N)C(COCCOCCCCCC#N)O2)cc(C(C)(C)C)c1 (stereo unspecified)"
  endpoint-name: "TGI"
  result: "> 100 µM"
- compound: "O=C(CCc1ccccc1)NS(=O)(=O)c1ccccc1"
  endpoint-name: "TGI"
  result: "> 100 µM"
- compound: "CC(=O)OCCOCNC(=S)N/N=C/c1cc([N+](=O)[O-])ccc1O"
  endpoint-name: "TGI"
  result: "> 100 µM"
- compound: "CSc1ccc2c(cc1=O)[C@@H](NC(=O)c1ccc(Cl)cc1)CCc1cc(O)c(O)c(O)c1-2"
  endpoint-name: "TGI"
  result: "> 100 µM"
- compound: "CCN(CC)CC(C)C(=O)/C=C/c1ccc(C)cc1 (stereo unspecified)"
  endpoint-name: "TGI"
  result: "3.04 µM"
- compound: "CN/C=C(\\C(=O)c1ccc(OC)c(OC)c1)c1ccc(OC)cc1"
  endpoint-name: "TGI"
  result: "34.3 µM"
- compound: "COc1ccc(C(=O)c2c3cc(OC)c(OC)c(OC)c3cc[n+]2C)cc1"
  endpoint-name: "TGI"
  result: "> 100 µM"
- compound: "O=C(N/C(=C\\c1cccc([N+](=O)[O-])c1)c1nc2ccccc2[nH]1)c1ccccc1"
  endpoint-name: "TGI"
  result: "> 100 µM"
- compound: "CCOC(=O)C(CCC(N)=O)(CCC(=O)OC)C(=O)OCC"
  endpoint-name: "TGI"
  result: "> 100 µM"
- compound: "c1cc2nnsc2s1"
  endpoint-name: "TGI"
  result: "> 100 µM"
